Assign IC50 to each entry below.
target: PTP1B (Homo sapiens, UniProt P18031); assay: Protein tyrosine phosphatase assay (malachite green), recombinant PTP1B; settings: 30 min, room temperature, read-out: IC50, PTP1B inhibition
Sequence (P18031 1-321 limits assumed): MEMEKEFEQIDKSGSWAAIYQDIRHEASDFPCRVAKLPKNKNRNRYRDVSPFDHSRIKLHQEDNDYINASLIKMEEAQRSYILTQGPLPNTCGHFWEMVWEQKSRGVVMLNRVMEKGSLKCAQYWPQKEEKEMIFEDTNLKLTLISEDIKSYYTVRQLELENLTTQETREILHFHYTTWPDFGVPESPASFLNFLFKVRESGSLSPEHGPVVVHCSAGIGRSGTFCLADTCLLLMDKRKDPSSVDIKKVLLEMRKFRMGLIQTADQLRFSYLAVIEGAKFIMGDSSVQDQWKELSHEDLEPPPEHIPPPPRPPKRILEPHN

Return reported IC50; argument: O=C/C=C/c1ccccc1
~4 µM

Return reported IC50; argument: COc1cc(/C=C/C(=O)CC(=O)/C=C/c2ccc(O)c(OC)c2)ccc1O
~25 µM

* * *

Assign IC50 to each entry below.
target: PP2A (Homo sapiens); construct: purchased Cayman Chem 10011237; test: Ser/Thr phosphatase assay (malachite green), recombinant PP2A; type: biochemical; conditions: recombinant PP2A, 30 min, room temperature; read-out: IC50, PP2A inhibition
Sequence (P67775 1-308 limits assumed): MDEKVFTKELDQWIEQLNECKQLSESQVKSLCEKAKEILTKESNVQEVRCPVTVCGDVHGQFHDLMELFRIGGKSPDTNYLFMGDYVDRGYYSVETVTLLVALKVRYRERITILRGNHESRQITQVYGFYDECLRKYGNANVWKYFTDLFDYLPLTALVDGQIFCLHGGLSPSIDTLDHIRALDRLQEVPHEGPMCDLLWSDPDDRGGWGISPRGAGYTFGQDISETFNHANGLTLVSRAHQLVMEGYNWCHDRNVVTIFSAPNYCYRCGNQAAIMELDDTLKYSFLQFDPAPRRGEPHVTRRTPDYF

Return reported IC50; argument: O=C/C=C/c1ccccc1
~40 µM

Return reported IC50; argument: COc1cc(/C=C/C(=O)CC(=O)/C=C/c2ccc(O)c(OC)c2)ccc1O
~20 µM
